meta.source: patent US4845215A

- protocol-summary: Acute toxicity (LD50) on mouse
- Type: in vivo
- measurement-parameters: in vivo, iv
reported-metric: LD50

Ask: Which LD50 value is on record for O=c1[nH]cnc2c1ncn2[C@@H]1O[C@H](CO)[C@H]1CO ?
Reply: ≥ 200 mg/kg
